Below is a list of entries, each paired with its recorded relative binding affinity value.
Molecular target: T1, human CD81 mutant H151R (human, UniProt P60033 1-236, limits assumed)
T1 construct: as m30; also called H151B; not shown: C-terminal V5 and 6xHis tags
T1 sequence: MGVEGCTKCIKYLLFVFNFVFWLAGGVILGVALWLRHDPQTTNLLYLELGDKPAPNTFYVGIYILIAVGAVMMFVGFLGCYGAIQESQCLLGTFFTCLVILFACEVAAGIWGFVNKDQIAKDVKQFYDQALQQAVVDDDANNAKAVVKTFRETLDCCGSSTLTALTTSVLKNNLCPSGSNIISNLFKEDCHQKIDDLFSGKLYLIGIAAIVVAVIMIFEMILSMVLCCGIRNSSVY
Assay: ELISA

Quick one: relative binding affinity for 002-A07 S115G (antibody, human IgG4 S228P, lambda, V domains shown, IgG4 S228P; glycosylation site mutant of 002-A07 VL) VH: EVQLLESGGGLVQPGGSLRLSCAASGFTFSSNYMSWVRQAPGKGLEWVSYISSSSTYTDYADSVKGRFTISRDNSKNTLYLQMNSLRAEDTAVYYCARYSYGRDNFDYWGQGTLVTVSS VL: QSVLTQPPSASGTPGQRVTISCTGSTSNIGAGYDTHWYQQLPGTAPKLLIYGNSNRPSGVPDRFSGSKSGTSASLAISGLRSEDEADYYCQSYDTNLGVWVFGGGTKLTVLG ? < 20%

Now give it for 002-B05 (antibody, human IgG4 S228P, lambda, V domains shown, IgG4 S228P) VH: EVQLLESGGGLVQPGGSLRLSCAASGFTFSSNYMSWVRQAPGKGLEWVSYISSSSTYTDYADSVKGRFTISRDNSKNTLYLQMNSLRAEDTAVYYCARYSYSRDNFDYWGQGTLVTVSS VL: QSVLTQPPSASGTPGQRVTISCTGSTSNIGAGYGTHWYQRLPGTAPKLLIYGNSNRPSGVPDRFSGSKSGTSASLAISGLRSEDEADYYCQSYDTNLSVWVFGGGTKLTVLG too. < 20%

Let us now turn to 003-F08 (antibody, human IgG4 S228P, lambda, V domains shown, IgG4 S228P) VH: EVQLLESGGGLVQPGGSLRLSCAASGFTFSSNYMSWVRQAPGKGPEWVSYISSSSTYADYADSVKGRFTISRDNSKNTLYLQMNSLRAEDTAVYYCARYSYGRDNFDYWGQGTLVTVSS VL: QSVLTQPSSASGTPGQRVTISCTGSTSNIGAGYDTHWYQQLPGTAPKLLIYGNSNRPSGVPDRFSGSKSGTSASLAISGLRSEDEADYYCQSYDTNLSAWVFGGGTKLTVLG < 20%
